Biological target: human MCR5 receptor (Homo sapiens)
Construct: expressed in transfected cells
Experiment: MCR5 standard functional assay (Protocol D): CHO-K1-MC5R-CRE-β-lactamase reporter
Assay type: cell-based
Conditions: Table 6; MCR4 by Protocol E
observedProperty: Selectivity MCR5/MCR4

Previously resolved entries follow.
compound="C[C@@H]1CN(C(=O)[C@@H]2CN(C(C)(C)C)C[C@H]2c2ccc(F)cc2F)C[C@H](C)[C@@]1(O)c1ccccn1.Cl [Example 22]" targetundertest="human MCR5 receptor (Homo sapiens)" experimentalvalue=772
compound="C[C@@H]1CN(C(=O)[C@@H]2CN(C(C)(C)C)C[C@H]2c2ccc(F)cc2F)C[C@H](C)[C@@]1(O)c1ccc(F)cc1F.Cl [Example 15]" targetundertest="human MCR5 receptor (Homo sapiens)" experimentalvalue=556
compound="C[C@@H]1CN(C(=O)[C@@H]2CN(C(C)(C)C)C[C@H]2c2ccc(F)cc2F)C[C@H](C)[C@@]1(O)c1ccccc1.Cl [Example 5]" targetundertest="human MCR5 receptor (Homo sapiens)" experimentalvalue=285
compound="C[C@@H]1CN(C(=O)[C@@H]2CN(c3ccccn3)C[C@H]2c2ccc(F)cc2F)C[C@H](C)[C@@]1(O)c1ccccc1.Cl [Example 31]" targetundertest="human MCR5 receptor (Homo sapiens)" experimentalvalue=266
compound="CC(C)N1C[C@@H](C(=O)N2C[C@@H](C)[C@](O)(c3ccccc3)[C@@H](C)C2)[C@H](c2ccc(F)cc2F)C1.Cl [Example 6]" targetundertest="human MCR5 receptor (Homo sapiens)" experimentalvalue=83
compound="C[C@@H]1CN(C(=O)[C@@H]2CNC[C@H]2c2ccc(F)cc2F)C[C@H](C)[C@@]1(O)c1ccc(F)cc1.Cl [Example 12]" targetundertest="human MCR5 receptor (Homo sapiens)" experimentalvalue=267

a = C[C@@H]1CN(C(=O)[C@@H]2CN(C(C)(C)C)C[C@H]2c2ccc(F)cc2F)C[C@H](C)[C@@]1(O)c1ccccc1 [Example 1]
b = C[C@@H]1CN(C(=O)[C@@H]2CN(C(C)(C)C)C[C@H]2c2ccc(F)cc2F)C[C@H](C)[C@@]1(O)c1ccc(Cl)cc1.Cl [Example 13]
Challenge: Which value of Selectivity MCR5/MCR4 is greater, the one for a or the one for b ? Lab log: write the label of the selected item as the result.
Response given: b

* * *

Target: human MCR5 receptor (Homo sapiens, UniProt P33032)
Construct: expressed in transfected cells
Sequence (P33032 whole entry): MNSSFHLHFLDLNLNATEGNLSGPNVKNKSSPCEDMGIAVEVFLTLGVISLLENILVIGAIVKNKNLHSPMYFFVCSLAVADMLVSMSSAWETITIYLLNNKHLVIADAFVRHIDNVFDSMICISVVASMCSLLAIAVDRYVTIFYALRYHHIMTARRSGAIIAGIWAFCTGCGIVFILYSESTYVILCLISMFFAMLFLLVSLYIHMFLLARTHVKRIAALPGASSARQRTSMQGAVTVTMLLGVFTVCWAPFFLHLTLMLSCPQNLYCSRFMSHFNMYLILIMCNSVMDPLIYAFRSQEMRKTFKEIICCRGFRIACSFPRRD
Assay: MCR5 standard functional assay (Protocol D): CHO-K1-MC5R-CRE-β-lactamase reporter
Format: cell-based
Conditions: Table 6; Protocol D
Description: These cell lines were engineered using protocols akin to those outlined by Zaccolo et al (Zaccolo, M., (2000) Nature, 2(1); 25-29). […] The quantity of β-lactamase enzyme produced was directly proportional to the degree to which the test compound activated the MCR5 or MCR4 receptors present on these cells and was quantified using the P-lactamase gene reporter analysis kit that is commercially available from Invitrogen Life Technologies. […]
pEC50: −log10 of the molar value.
observedProperty: pEC50

Previously resolved entries follow.
molecule="C[C@@H]1CN(C(=O)[C@@H]2CN(C(C)(C)C)C[C@H]2c2ccc(F)cc2F)C[C@H](C)[C@@]1(O)c1ccccc1.Cl [Example 5, hydrochloride]" experimentalvalue=5.56
molecule="C[C@@H]1CN(C(=O)[C@@H]2CN(C(C)(C)C)C[C@H]2c2ccc(F)cc2F)C[C@H](C)[C@@]1(O)c1ccc(Cl)cc1.Cl [Example 13, hydrochloride]" experimentalvalue=4.77
molecule="C[C@@H]1CN(C(=O)[C@@H]2CN(c3cccnn3)C[C@H]2c2ccc(F)cc2F)C[C@H](C)[C@@]1(O)c1ccccc1.Cl [Example 35, hydrochloride]" experimentalvalue=4.70

a = C[C@@H]1CN(C(=O)[C@@H]2CN(C(C)(C)C)C[C@H]2c2ccc(F)cc2F)C[C@H](C)[C@@]1(O)c1ccccn1.Cl [Example 22, hydrochloride]
b = C[C@@H]1CN(C(=O)[C@@H]2CN(c3ccccn3)C[C@H]2c2ccc(F)cc2F)C[C@H](C)[C@@]1(O)c1ccccc1.Cl [Example 31, hydrochloride]
Challenge: Which value of pEC50 is greater, the one for a or the one for b ? Lab log: write the label of the selected item as the result.
Response given: b
